# credit: patent US8883782B2

Here, each record is paired with measured IC50 data.
Tested on: Aβ40 in conditioned medium of cells stably expressing Amyloid Precursor Protein (APP)
Method summary: In vitro BACE cell-based assay (Aβ40 in conditioned medium, sandwich ELISA)
Conditions: Homo sapiens, HEK293, average IC50; read-out: HEK cell assay
Test readout: IC50 (µM)

1) CC1(C#Cc2cc3c(cn2)Oc2ccc(-c4cccc(C#N)c4)cc2[C@@]32COC(N)=N2)COC1 [Example 164]    0.0189
2) CC1(COc2cc(F)c3c(c2)[C@]2(COC(N)=N2)c2cc(-c4ccc(F)nc4)ccc2O3)COC1 [Example 266]    0.0068
3) CC1(C#Cc2cnc3c(c2)[C@]2(COC(N)=N2)c2cc(-c4ccc(F)c(F)c4)ccc2O3)COC1 [Example 188]    0.0866
4) NC1=N[C@@]2(CO1)c1cc(-c3cccnc3F)ccc1Oc1c(F)cc(N3CC4CC4C3)cc12 (some centres unmarked) [Example 1054]    0.062
5) Cc1ccc(-c2ccc3c(c2)[C@@]2(COC(N)=N2)c2cc(-c4ccnc(F)c4)ncc2O3)c(F)n1 [Example 254]    1.07
6) Cc1ccc(Oc2ccc3c(c2)[C@@]2(COC(N)=N2)c2cc(N4CCOCC4)cc(F)c2O3)nc1 [Example 1058]    0.604
7) CC1(C#Cc2cncc(-c3ccc4c(c3)[C@@]3(COC(N)=N3)c3cc(-c5ccnc(F)c5)ncc3O4)c2)COC1 [Example 812]    0.46
8) CC1(C#Cc2cc3c(cn2)Oc2ccc(-c4cccnc4)cc2[C@@]32COC(N)=N2)COC1 [Example 154]    0.0065
9) NC1=N[C@]2(CO1)c1cc(C3=CCOCC3)cnc1Oc1ccc(-c3cccnc3F)c(F)c12 [Example 346]    0.0067
10) Cn1cc(-c2cc3c(cc2F)Oc2ccc(-c4cccnc4F)cc2[C@@]32COC(N)=N2)cn1 [Example 311]    0.0195
11) CC(C)(C#N)COc1cc(F)c2c(c1)[C@]1(COC(N)=N1)c1cc(-c3cccnc3)ccc1O2 [Example 257]    0.0063
12) CC1(C#Cc2cnc3c(c2)[C@@]2(COC(N)=N2)c2c(ccc(-c4cncnc4)c2F)O3)COC1 [Example 345]    0.65
13) NC1=N[C@@]2(CO1)c1cc(-c3cccnc3F)ccc1Oc1cc(F)c(C3=CCOCC3)cc12 [Example 320]    0.06
14) NC1=N[C@@]2(CS1)c1cc(-c3cccnc3F)ccc1Oc1c2cc(-c2ccnc(F)c2)nc1F (single isomer, unassigned) [Example 996]    0.013
15) CC1(C)C=C(c2cnc3c(c2)[C@]2(COC(N)=N2)c2c(ccc(-c4cncnc4)c2F)O3)CCO1 [Example 352]    0.0194
16) NC1=N[C@@]2(CS1)c1cc(-c3cccnc3F)ccc1Oc1c(F)cc(N3CC[C@@H](F)C3)cc12 [Example 1075]    0.015
17) NC1=N[C@@]2(CS1)c1cc(-c3cccnc3F)ccc1Oc1c(F)cc(-c3ncccn3)cc12 [Example 1079]    0.012
18) CC#Cc1cncc(-c2ccc3c(c2)[C@@]2(CSC(N)=N2)c2cc(-c4cncc(C#CC)c4)cnc2O3)c1 [Example 730]    0.171
19) NC1=N[C@@]2(CS1)c1cc(-c3cccnc3F)ccc1Oc1c(F)cc(N3C[C@@H]4C[C@H]3CO4)cc12 [Example 1084]    0.102
